Data provenance: PubChem BioAssay (NCI)

# Test system: KM12 colon
# assay notes: NCI-60 one-dose screen, 48 h
# reported conditions: 10 µM
This is part of a sample that, as a whole, favours compounds with a hit. Of some 83,000 tested, about 20% had one in any assay. Calls of active or inactive are those of the source. Rule for the calls: active = growth percent below 10; inactive = the rest.
Classes used: active, inactive

compound	class label
CC1=N/C(=C\c2ccc(N(C)C)cc2)C(=O)N1CCc1ccc(S(N)(=O)=O)cc1	inactive
CC(=O)OC[C@@]1(C)C2CC[C@]3(C)C(CC=C4C5CC(C)(C)CC[C@]5(C(=O)Nc5ccccc5)CC[C@]43C)[C@@]2(C)C[C@@H](OC(C)=O)[C@@H]1OC(C)=O (stereo partly drawn)	inactive
COc1ccc(-c2ccc(/C=N/NC(=O)c3[nH]c4ccc(Br)cc4c3-c3ccccc3)o2)cc1	inactive
CC[C@@]1(O)C(=O)OCc2c1cc1n(c2=O)Cc2c-1nc1cc(F)c(C)c3c1c2[C@@H](N)CC3	active
Cc1ccc(-c2nc3ccc(C(=O)N=Nc4c(O)[nH]c5ccc(Cl)cc45)cc3[nH]2)cc1	active
O=C(Nc1ccc(OCC(=O)c2ccccc2)cc1)Nc1ccc(Cl)c(C(F)(F)F)c1	active
CC(=O)Oc1ccccc1C(=O)Oc1ccc(C(=O)/C=C/c2ccncc2)cc1	inactive
O=c1oc2ccc(-c3ccc(F)cc3F)cc2c(=O)n1-c1ccc(Cl)c(C(F)(F)F)c1	active

---

# Test system: NCI-H322M lung
# assay notes: NCI-60 one-dose screen, 48 h
# reported conditions: 10 µM
This is part of a sample that, as a whole, favours compounds with a hit. Of some 83,000 tested, about 20% had one in any assay. The source made the active and inactive calls. The calls were made as follows: active = growth percent below 10; inactive = the rest.
Classes used: active, inactive

> print(dat)
                                 smiles.str  class.label
1  COC(=O)c1c(C(=O)OC)c2n(c1C)[C@@H]([C@@H](C)[C@H]1CC[C@H]3[C@@H]4CCC5=CC(=O)CC[C@]5(C)[C@H]4CC[C@]13C)SC2     inactive
2  O=C(CSc1nnc(-c2ccc3nc(-c4ccc(Cl)cc4)[nH]c3c2)o1)Nc1ccc(Cl)cc1       active
3  Cc1ccc(-c2nc3ccc(C(=O)N=Nc4c(O)[nH]c5ccc(Br)cc45)cc3[nH]2)cc1     inactive
4  O=C(NO)c1ccc(CNC(=O)[C@H]2Cc3c([nH]c4ccccc34)[C@H](c3ccccc3)N2)cc1     inactive
5       COc1ccccc1NCc1ccc(CO)n1-c1ccc(C)cc1     inactive
6  COc1cc2c(cc1OC)/C(=C\c1sc(Nc3ccc(O)cc3)nc1O)C(C(=O)O)=N2     inactive
7  O=C(NO)c1ccc(Cn2ccc3c(Nc4ccccc4)ncnc32)cc1     inactive
8  CCOc1ccc(Nc2nc3ccccc3nc2Nc2ccc(OCC)cc2)cc1     inactive

---

# Tested on: PC-3 prostate
# assay notes: NCI-60 one-dose screen, 48 h
# reported conditions: 10 µM
About 83,000 compounds went through this panel and 20% of them were active in at least one assay; those are over-represented in the sample as a whole. The source made the active and inactive calls. How the source made its calls: active means growth percent below 10; inactive means the rest.
Classes used: 1 (yes) = active, 0 (no) = inactive

> print(dat)
                                   compound  class.label
1  COc1ccc(/C=N/N=C(\C)c2ccc3c(c2)Nc2ccccc2S3)cc1O       0 (no)
2       Cc1ccc(C(C)C)cc1NC(=O)c1ccccc1N(C)C       0 (no)
3  COC(=O)c1c(C(=O)OC)c2n(c1C)[C@@H]([C@@H](C)[C@H]1CC[C@H]3[C@@H]4CCC5=CC(=O)CC[C@]5(C)[C@H]4CC[C@]13C)SC2      1 (yes)
4  Cc1ccc(CSc2nc(-c3ccc(F)cc3)c(C#N)c(=O)[nH]2)cc1       0 (no)
5  COc1ccc(/C=C/C(=O)c2ccc(S(=O)(=O)NCCNc3nc(Nc4ccc(F)cc4)nc(N(C)C)n3)cc2)cc1       0 (no)
6  CCC(C)S(=O)(=O)c1oc(-c2ccc(C)cc2)nc1S(=O)(=O)c1ccccc1 (centres undefined)      1 (yes)
7  COc1cc(-c2nc3cc(Cl)c(Cl)cc3[nH]2)ccc1OCc1nnc(-c2ccc(Br)cc2)o1      1 (yes)
8  O=c1[nH]c2ccccc2cc1CSc1ccc(Nc2nccc(-c3ccc(Cl)cc3)n2)cc1      1 (yes)
9  C/C(=C\c1ccc(O)cc1O)c1ccc2ccc(O)cc2[o+]1       0 (no)

---

# Tested on: SK-OV-3 ovarian
# assay notes: NCI-60 one-dose screen, 48 h (100 = growth as untreated, 0 = no growth, -100 = all killed)
# reported conditions: 10 µM
About 83,000 compounds went through this panel and 20% of them were active in at least one assay; those are over-represented in the sample as a whole.
// label = Fulfilled if growth is not less than 60%, otherwise Not fulfilled

> print(dat)
                                   molecule  target.or.test.system    class.label
1  CC[C@@]1(O)C(=O)OCc2c1cc1n(c2=O)Cc2c-1nc1cc(F)c(C)c3c1c2[C@@H](N)CC3        SK-OV-3 ovarian  Not fulfilled
2  CCOc1ccc(Nc2nc3ccccc3nc2Nc2ccc(OCC)cc2)cc1        SK-OV-3 ovarian      Fulfilled
3  Cc1ccn2c(C(=O)c3ccccc3)cc(-c3cc(-c4ccc(N(C)C)cc4)c(C#N)c(N)n3)c2c1        SK-OV-3 ovarian      Fulfilled
4  COc1cccc2nc(Nc3ccc(F)c(NC(=O)c4ccc(CN5CCN(C)CC5)c(C(F)(F)F)c4)c3)ccc12        SK-OV-3 ovarian  Not fulfilled
5  CCOC(=O)C1=C(N)N(c2ccc(Cl)cc2)C2=C(C(=O)CC(C)(C)C2)C1c1ccc(N2CCOCC2)cc1 (stereo not given)        SK-OV-3 ovarian      Fulfilled
6  CN(CCO)c1oc(-c2ccccc2)nc1[P+](c1ccccc1)(c1ccccc1)c1ccccc1        SK-OV-3 ovarian  Not fulfilled
7  O=C(CSc1nnc(-c2ccc3nc(-c4ccc(Cl)cc4)[nH]c3c2)o1)Nc1ccc(Cl)cc1        SK-OV-3 ovarian  Not fulfilled
8  COc1cccc(/C=C2\N=C(C)N(CCc3ccc(S(N)(=O)=O)cc3)C2=O)c1        SK-OV-3 ovarian      Fulfilled
9  N#Cc1ccc(NC(=O)CSc2ccc(-c3ccc(Br)cc3)nn2)cc1        SK-OV-3 ovarian      Fulfilled

---

Measured growth, listed per entry for reference.
# System: OVCAR-3 ovarian
# assay notes: NCI-60 one-dose screen, 48 h (100 = growth as untreated, 0 = no growth, -100 = all killed)
# reported conditions: 10 µM
About 83,000 compounds went through this panel and 20% of them were active in at least one assay; those are over-represented in the sample as a whole.
assay endpoint: growth (%)

> print(dat)
                                 smiles.str  observed
1  C/C(=N\N=C\c1ccc(Cl)c([N+](=O)[O-])c1)c1ccc2c(c1)Nc1ccccc1S2      27.5
2  O=C(CSc1nnc(-c2ccc3nc(-c4ccc(Cl)cc4)[nH]c3c2)o1)Nc1ccc(Br)cc1     -15.9
3     Cc1ccc(/C=C(\C#N)n2nnc3c(F)cccc32)cc1     0.864
4  Cc1noc2c(Cc3ccc([N+](=O)[O-])cc3)nn(CC(=O)N/N=C/c3ccc(Br)cc3)c(=O)c12      50.1
5  CN1CCN(c2ccc(Nc3nc(N4CCN(S(=O)(=O)c5ccc(F)cc5)CC4)c4sccc4n3)cc2)CC1       -79
6  O=C(Cn1cc(CSc2nnc3oc4ccccc4n23)nn1)Nc1cccc(Cl)c1      78.5

---

# Tested on: 786-0 renal
# assay notes: NCI-60 one-dose screen, 48 h (100 = growth as untreated, 0 = no growth, -100 = all killed)
# reported conditions: 10 µM
The panel holds about 83,000 compounds, 20% with a hit somewhere; the sample as a whole holds those more often.

compound	growth (%)
COc1cc(NC(=O)CSc2nnc(-c3ccc4nc(-c5ccc(Cl)cc5)[nH]c4c3)o2)cc(OC)c1OC	78.3
COc1ccccc1C(=O)NNC(=O)CSc1nc2c(c(=O)[nH]1)CCCC2	115
CCCn1c(=O)c2[nH]c(-c3ccc(OCc4nc5ccc(C)cc5[nH]4)cc3)nc2n(CCC)c1=O	-75.2
CCNCCCn1c2c(c3cc(OC)c(OC)cc3c1=O)C(=O)c1cc3c(nc1-2)OCO3	-71.7
COc1cc(C2CC(c3ccccc3)=Nc3c(N)nc(N)nc3N2)ccc1Oc1nc(Nc2ccc(F)cc2)nc(N(C)C)n1 (centres undefined)	43.4
O=C(Cc1ccc2c(c1)CN(C1CCC(=O)NC1=O)C2=O)NCCc1ccccc1 (centres undefined)	6.47
Cn1cc(-c2cc(N)n3nc(-c4c[nH]c5ccc(Br)cc45)cc3n2)c2cc(Br)cnc21	-75
COc1ccc(C(C)=C(c2ccc(OCCCN(C)C)cc2)c2ccc(OCCCN(C)C)cc2)cc1	-82.6
C#Cc1ccc(S(=O)(=O)Nc2cccc(-c3csc(NC(C)=O)n3)c2)cc1	88.2
COc1ccc(C(=O)Nc2sc3c(c2C#N)CCC(=O)C3)cc1C(F)(F)F	7.91
[2H]C([2H])([2H])Oc1ccc2ncc(C#Cc3cncc(C(=O)Nc4ccc(CN5CCN(C)CC5)c(C(F)(F)F)c4)c3)n2n1	-28.6
CC(=O)Nc1ccc(-n2cnc3cc(-c4ccc(O)cc4)ccc32)cc1F	32.4
O=C(CSc1nnc(-c2c[nH]c3ccccc23)n1-c1ccccc1)c1ccc(Cl)cc1	44.9
Cc1cc(C)cc(Oc2cccc(-c3c(C)nnn3C3CCN(CCN(C)C)CC3)n2)c1	22.3
COc1ccc2[nH]cc(/C=N/Nc3ccc(Br)cn3)c2c1	-3.93
COc1ccc(N(C)c2cc(C#N)nc3ccccc23)cc1N	22.6
O=C(NCCCCC(c1ccc(F)cc1)c1ccc(F)cc1)NCCCc1cccnc1	47.7
CC1=C2C(=C[C@@](C)(COCOCCCl)[C@@H]2O)C(=O)[C@](C)(O)C12CC2	-36.2
C/C(=N\N=C\c1ccc(Cl)c([N+](=O)[O-])c1)c1ccc2c(c1)Nc1ccccc1S2	52.1
Cc1cc(C)nc(/N=C(\N)Nc2ccc(S(=O)(=O)Nc3nc(C)cc(C)n3)cc2)n1	111
Cc1ccc(NC(=O)c2ccc(-n3c(=O)[nH]c4ccccc4c3=O)cc2)cc1	36.7
O=C1Nc2cc(-c3ccc(NC(=O)c4cccc([N+](=O)[O-])c4)cc3)ccc2/C1=C/c1ccc[nH]1	103
C/C(=N\N=C\c1ccc(N(C)C)cc1)c1ccc2c(c1)Nc1ccccc1S2	67.5
O=C1NC(=NC2CCCCCC2)N/C1=C\c1ccc2ncoc2c1	40.6
Cc1nn(-c2ccccc2)c2ncn(CC(=O)N/N=C/c3c[nH]c4ccccc34)c(=O)c12	88
Cn1c(O)c(N=Nc2nc(-c3cc4ccccc4oc3=O)cs2)c2cc(Br)ccc21	-12
Cc1ccc([N+](=O)[O-])c(C(=O)Nc2ccc(-c3ccc4c(c3)NC(=O)/C4=C\c3ccc[nH]3)cc2)c1	61.6
Cc1ccc(-c2cc(C(=O)N=Nc3c(O)[nH]c4ccc(Br)cc34)c3ccccc3n2)cc1	88.6
C=C[C@H]1[C@H](O[C@@H]2OC(CO)[C@@H](O)[C@H](O)C2OC(=O)c2c(O)cc(O)cc2-c2cccc(O)c2)OC=C2C(=O)OCC[C@H]21 (some centres undefined)	105
